molecular target: UniProt:P41595; test: Calcium flux test for 5-HT2B receptor; settings: HEK293 cell strain stably expressing 5-HT2B receptor; calcium flux, antagonism of serotonin
Sequence (P41595 whole entry): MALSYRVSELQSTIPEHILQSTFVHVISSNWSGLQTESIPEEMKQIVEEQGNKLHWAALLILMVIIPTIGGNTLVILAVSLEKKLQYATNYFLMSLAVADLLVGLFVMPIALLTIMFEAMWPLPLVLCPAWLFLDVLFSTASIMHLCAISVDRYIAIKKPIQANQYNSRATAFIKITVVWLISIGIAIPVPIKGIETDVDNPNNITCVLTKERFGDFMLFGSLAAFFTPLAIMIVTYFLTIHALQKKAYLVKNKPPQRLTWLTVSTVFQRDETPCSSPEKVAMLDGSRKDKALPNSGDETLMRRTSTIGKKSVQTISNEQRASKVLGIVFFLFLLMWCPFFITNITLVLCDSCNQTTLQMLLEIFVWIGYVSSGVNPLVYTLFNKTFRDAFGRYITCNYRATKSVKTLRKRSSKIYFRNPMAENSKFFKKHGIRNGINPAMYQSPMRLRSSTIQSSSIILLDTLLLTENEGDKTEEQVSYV
measurement-kind: IC50 (nM)

>  <compound>
O=C1Nc2cc(OCCCCN3CCN(c4cccc(Cl)c4Cl)CC3)ccc2C2CC12 (stereo not shown)

>  <measured-number>
658

$$$$

---

test: Pharmacokinetic test in mice; format: in vivo; details: male, ICR, mouse, plasma, po, 5 mg/kg, oral intragastric, single dose 5 mg/kg, read-out: Cmax
# if measured Cmax < 1000 ng/mL: 1.0  # else: 0.0

>  <compound>
O=C1COc2ccc(OCCCCN3CCN(c4cccc(Cl)c4Cl)CC3)cc2N1 [RP5063, reference compound]

>  <qualitative-label>
1.0

$$$$
>  <compound>
O=C1Nc2cc(OCCCCN3CCN(c4cccc(Cl)c4Cl)CC3)ccc2C2CC12 (stereo not shown)

>  <qualitative-label>
1.0

$$$$
>  <compound>
O=C1Nc2cc(OCCCCN3CCN(c4cccc5c4CCO5)CC3)ccc2C2CC12 (stereo not shown) [Example 45]

>  <qualitative-label>
0.0

$$$$
>  <compound>
O=C1Nc2cc(OCCCCN3CCN(c4cccc5sccc45)CC3)ccc2C2CC12 (single isomer, unassigned) [Example 42-P1]

>  <qualitative-label>
0.0

$$$$
>  <compound>
O=C1Nc2cc(OCCCCN3CCN(c4cccc(Cl)c4Cl)CC3)ccc2[C@H]2C[C@@H]12 (single isomer, unassigned) [Example 1-P1]

>  <qualitative-label>
1.0

$$$$
>  <compound>
O=C1Nc2cc(OCCCCN3CCN(c4cccc5sccc45)CC3)ccc2C2CC12 (stereo not shown) [Example 42]

>  <qualitative-label>
1.0

$$$$
>  <compound>
O=C1Nc2cc(OCCCCN3CCN(c4cccc5c4CC(F)(F)C5)CC3)ccc2C2CC12 (stereo not shown)

>  <qualitative-label>
0.0

$$$$

---

Test: Pharmacokinetic test in mice
Assay type: in vivo
Settings: male, ICR, mouse, plasma, po, 5 mg/kg, oral intragastric, single dose 5 mg/kg, read-out: Cmax
Experimental: Male ICR mice were administered orally intragastrically, the plasma concentrations of the compounds of the present invention were measured in the mice, the PK parameters were calculated, and the pharmacokinetic evaluation was performed on the compounds of the present invention. […] Drug preparation: according to the weight of the weighed drug, the preparation volume was calculated. […]

>  <compound>
O=C1CCc2ccc(OCCCCN3CCN(c4cccc(Cl)c4Cl)CC3)cc2N1 [Aripiprazole, reference compound]

>  <value-units>
ng/mL

>  <Cmax>
180

$$$$
>  <compound>
O=C1Nc2cc(OCCCCN3CCN(c4cccc(Cl)c4Cl)CC3)ccc2[C@@H]2C[C@H]12 (single isomer, unassigned) [Example 1-P2]

>  <value-units>
ng/mL

>  <Cmax>
430

$$$$
>  <compound>
O=C1Nc2cc(OCCCCN3CCN(c4cccc5c4OC(F)(F)O5)CC3)ccc2C2CC12 (stereo not shown) [Example 41]

>  <value-units>
ng/mL

>  <Cmax>
971

$$$$
>  <compound>
O=C1Nc2cc(OCCCCN3CCN(c4cccc5c4CCO5)CC3)ccc2C2CC12 (single isomer, unassigned) [Example 45-P1]

>  <value-units>
ng/mL

>  <Cmax>
774

$$$$

---

target: D2L receptor (Homo sapiens, UniProt P14416); assay: D2L receptor cAMP agonist test; conditions: HEK293 cell strain stably expressing D2L receptor; cAMP; forskolin 0.5 μM
Sequence (P14416 whole entry): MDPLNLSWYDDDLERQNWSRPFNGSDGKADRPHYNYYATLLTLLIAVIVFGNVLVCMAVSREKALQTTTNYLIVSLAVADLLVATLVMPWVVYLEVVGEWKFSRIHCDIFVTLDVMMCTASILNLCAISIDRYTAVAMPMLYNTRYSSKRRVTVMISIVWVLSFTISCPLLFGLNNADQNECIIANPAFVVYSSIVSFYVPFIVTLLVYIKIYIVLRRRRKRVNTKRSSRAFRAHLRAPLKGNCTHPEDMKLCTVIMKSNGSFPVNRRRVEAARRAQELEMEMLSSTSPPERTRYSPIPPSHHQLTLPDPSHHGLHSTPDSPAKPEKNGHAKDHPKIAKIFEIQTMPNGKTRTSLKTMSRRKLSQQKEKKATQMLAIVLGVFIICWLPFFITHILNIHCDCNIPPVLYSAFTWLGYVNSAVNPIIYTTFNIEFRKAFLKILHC
Attribute: EC50

>  <molecule>
O=C1Nc2cc(OCCCCN3CCN(c4cccc5c4CCC5)CC3)ccc2C2CC12 (single isomer, unassigned) [Example 43-P2]

>  <EC50>
0.25 nM

$$$$
>  <molecule>
O=C1Nc2cc(OCCCCN3CCN(c4cccc5[nH]ccc45)CC3)ccc2C2CC12 (stereo not shown) [Example 52]

>  <EC50>
0.31 nM

$$$$
>  <molecule>
O=C1Nc2cc(OCCCCN3CCN(c4cccc5sc(Cl)cc45)CC3)ccc2C2CC12 (stereo not shown) [Example 49]

>  <EC50>
0.91 nM

$$$$
>  <molecule>
O=C1Nc2cc(OCCCCN3CCN(c4cccc5ccsc45)CC3)ccc2C2CC12 (stereo not shown) [Example 48]

>  <EC50>
0.49 nM

$$$$
>  <molecule>
O=C1Nc2cc(OCCCCN3CCN(c4cccc5c4CCO5)CC3)ccc2C2CC12 (stereo not shown) [Example 45]

>  <EC50>
0.44 nM

$$$$
>  <molecule>
O=C1Nc2cc(OCCCCN3CCN(c4cccc5c4CC(F)(F)C5=O)CC3)ccc2C2CC12 (stereo not shown) [Example 47]

>  <EC50>
0.84 nM

$$$$
>  <molecule>
O=C1Nc2cc(OCCCCN3CCN(c4cccc5c4CC(F)(F)C5)CC3)ccc2C2CC12 (stereo not shown) [Example 46]

>  <EC50>
0.4 nM

$$$$
>  <molecule>
O=C1Nc2cc(OCCCCN3CCN(c4cccc(O)c4Cl)CC3)ccc2C2CC12 (stereo not shown) [Example 38]

>  <EC50>
1.39 nM

$$$$
>  <molecule>
O=C1Nc2cc(OCCCCN3CCN(c4cccc5c4CCO5)CC3)ccc2C2CC12 (single isomer, unassigned) [Example 45-P1]

>  <EC50>
2.12 nM

$$$$
>  <molecule>
O=C1Nc2cc(OCCCCN3CCN(c4cccc5c4CCO5)CC3)ccc2C2CC12 (single isomer, unassigned) [Example 45-P2]

>  <EC50>
0.62 nM

$$$$
>  <molecule>
O=C1Nc2cc(OCCCCN3CCN(c4ccc(Cl)s4)CC3)ccc2C2CC12 (stereo not shown) [Example 51]

>  <EC50>
1.53 nM

$$$$
>  <molecule>
O=C1Nc2cc(OCCCCN3CCN(c4cccc5sccc45)CC3)ccc2C2CC12 (single isomer, unassigned) [Example 42-P2]

>  <EC50>
0.43 nM

$$$$
>  <molecule>
O=C1Nc2cc(OCCCCN3CCN(c4cccc5c4OCC5)CC3)ccc2C2CC12 (stereo not shown) [Example 44]

>  <EC50>
0.37 nM

$$$$
>  <molecule>
O=C1Nc2cc(OCCCCN3CCN(c4cccc5sccc45)CC3)ccc2C2CC12 (stereo not shown) [Example 42]

>  <EC50>
0.47 nM

$$$$
>  <molecule>
O=C1Nc2cc(OCCCCN3CCN(c4cccc5c4CCC5)CC3)ccc2C2CC12 (stereo not shown) [Example 43]

>  <EC50>
0.3 nM

$$$$
>  <molecule>
O=C1Nc2cc(OCCCCN3CCN(c4cccc(Cl)c4Cl)CC3)ccc2[C@H]2C[C@@H]12 (single isomer, unassigned) [Example 1-P1]

>  <EC50>
1.07 nM

$$$$
